remaining activity at 0.1 µM values for the compounds below.
molecular target: panel of 60 human kinases (Homo sapiens); construct: purchased Reaction Biology Corp; assay: Radiolabeled ATP kinase assay, panel of 60 kinases (Table S5); type: biochemical; conditions: CDK2/cyclin A; 0.1 μM; 10 μM ATP; read-out: % Enzyme Activity (relative to DSMO controls)
A number alone suffices; assume %.

compound=CN1CCN(Cc2ccc(-c3cnc4[nH]cc(-c5ccc6c(c5)OCCO6)c4c3)cc2)CC1 measurement=34.4
compound=CN1CCN(Cc2ccc(-c3cnc4[nH]cc(-c5ccccc5Cl)c4c3)cc2)CC1 measurement=69.5
compound=Cc1nn(C)c(C)c1-c1c[nH]c2ncc(-c3ccc(CN4CCN(C)CC4)cc3)cc12 measurement=90.9
compound=COc1ccccc1-c1c[nH]c2ncc(-c3ccc(CN4CCN(C)CC4)cc3)cc12 measurement=56.1
compound="CN1CCN(Cc2ccc(-c3cnc4[nH]cc(-c5ccc6[nH]ccc6c5)c4c3)cc2)CC1 [Compound 1, reference compound]" measurement=83.7

Param item = `CN1CCN(Cc2ccc(-c3cnc4[nH]cc(-c5cccc(Cl)c5)c4c3)cc2)CC1` ; retrieve measured remaining activity at 0.1 µM.
87.4

Param item = `CN1CCN(Cc2ccc(-c3cnc4[nH]cc(-c5ccoc5)c4c3)cc2)CC1` ; retrieve measured remaining activity at 0.1 µM.
91.1

Param item = `CN1CCN(Cc2ccc(-c3cnc4[nH]cc(-c5cnn(Cc6ccccc6)c5)c4c3)cc2)CC1` ; retrieve measured remaining activity at 0.1 µM.
44.2

Param item = `CN1CCN(Cc2ccc(-c3cnc4[nH]cc(-c5ccncc5)c4c3)cc2)CC1` ; retrieve measured remaining activity at 0.1 µM.
66

* * *

remaining activity at 0.1 µM values for the molecules below.
Biological target: panel of 60 human kinases (Homo sapiens)
Construct: purchased Reaction Biology Corp
Experiment: Radiolabeled ATP kinase assay, panel of 60 kinases (Table S5)
Assay type: biochemical
Conditions: P38d/MAPK13; 0.1 μM; 10 μM ATP; read-out: % Enzyme Activity (relative to DSMO controls)
Procedure: To better understand the biologically relevant targets of compound 1 and its analogs, a second round of cell-free kinase assays was performed. In this expanded assay, we selected ten analogs ranging from moderately to very strongly protective in the CPA assay. These analogs were evaluated for their ability to inhibit a selection of 60 kinases at 0.1 μM and 0.5 μM. […] RNAseq data were used to confirm the expression of each kinase in ES MNs (see Example 12). […]
A number alone suffices; assume %.

molecule=CN1CCN(Cc2ccc(-c3cnc4[nH]cc(-c5ccccc5Cl)c4c3)cc2)CC1 measured_target="panel of 60 human kinases (Homo sapiens)" endpoint="remaining activity at 0.1 µM" reading_unit=% measurement=113
molecule=COc1ccccc1-c1c[nH]c2ncc(-c3ccc(CN4CCN(C)CC4)cc3)cc12 measured_target="panel of 60 human kinases (Homo sapiens)" endpoint="remaining activity at 0.1 µM" reading_unit=% measurement=104
molecule="CN1CCN(Cc2ccc(-c3cnc4[nH]cc(-c5ccc6[nH]ccc6c5)c4c3)cc2)CC1 [Compound 1, reference compound]" measured_target="panel of 60 human kinases (Homo sapiens)" endpoint="remaining activity at 0.1 µM" reading_unit=% measurement=112

// fetch panel of 60 human kinases (Homo sapiens) remaining activity at 0.1 µM for `CN1CCN(Cc2ccc(-c3cnc4[nH]cc(-c5ccc6c(c5)OCCO6)c4c3)cc2)CC1`
98.6

// fetch panel of 60 human kinases (Homo sapiens) remaining activity at 0.1 µM for `Cc1nn(C)c(C)c1-c1c[nH]c2ncc(-c3ccc(CN4CCN(C)CC4)cc3)cc12`
106

// fetch panel of 60 human kinases (Homo sapiens) remaining activity at 0.1 µM for `CN1CCN(Cc2ccc(-c3cnc4[nH]cc(-c5ccoc5)c4c3)cc2)CC1`
112

// fetch panel of 60 human kinases (Homo sapiens) remaining activity at 0.1 µM for `CN1CCN(Cc2ccc(-c3cnc4[nH]cc(-c5ccncc5)c4c3)cc2)CC1`
105

// fetch panel of 60 human kinases (Homo sapiens) remaining activity at 0.1 µM for `CN1CCN(Cc2ccc(-c3cnc4[nH]cc(-c5cnn(Cc6ccccc6)c5)c4c3)cc2)CC1`
109

// fetch panel of 60 human kinases (Homo sapiens) remaining activity at 0.1 µM for `CN1CCN(Cc2ccc(-c3cnc4[nH]cc(-c5cccc(Cl)c5)c4c3)cc2)CC1`
119
